Provenance of the data: patent US20240360242A1

Listed binders paired with reported EC50% to KD005
Tested on: T1, recombinant human TROP2 extracellular domain (aa 1-274) comprising His tag (human, UniProt P09758 27-274)
T1 construct: Used here for all assays on recombinant human TROP2 (ELISA, immunoblot, SPR, crystal), although only some of them name the catalogue number; also called human recombinant TROP2; recombinant human TROP2 protein; not shown: His tag
T1 sequence: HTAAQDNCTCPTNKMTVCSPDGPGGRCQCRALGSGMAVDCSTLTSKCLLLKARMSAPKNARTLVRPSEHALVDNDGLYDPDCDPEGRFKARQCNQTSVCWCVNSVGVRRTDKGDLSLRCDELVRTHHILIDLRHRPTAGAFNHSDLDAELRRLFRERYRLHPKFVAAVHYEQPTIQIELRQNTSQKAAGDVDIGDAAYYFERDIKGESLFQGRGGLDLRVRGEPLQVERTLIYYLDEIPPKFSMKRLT
Assay explanation: ELISA, coated rh TROP2
Protocol: Human TROP2 recombinant proteins were coated on 96-well ELISA plates at the concentration of 1 μg/mL. Plates were covered with adhesive plate cover and stored at 4° C. overnight. The next day, plates were washed 3× with washing buffer (PBS with 0.1% Tween™ 20). Plates were blocked with 2% fat-free BSA in washing buffer for 1 hour at 37° C. […] The luminescence signal was detected by SpectraMax i3x at […].
Metric: EC50% to KD005

binder="KD059 (antibody, V domains shown, KD005 humanized variant) VH: QVQLQESGGGLIQPGGSLRLSCAASGFTFSGSDMSWVRQAPGKGPEWVSYITSGGTTYYADTVKGRFTISRDNSKNTLYLQMNSLRAEDTAVYRCAKSRLTDSHYVEDAWGQGTLVTVSS" metric="EC50% to KD005" result="1.25 ratio to KD005"
binder="KD063 (antibody, V domains shown, KD005 humanized variant) VH: QVQLQESGGGLIEPGGSLRLSCAASGFTFSGSDMSWVRQAPGKGLEWVSYITSGGTTYYADTVKGRFTISRDNSKNTLYLQMNSLRAEDTAVYRCAKSRLTDSHYVEDAWGQGTQVTVSS" metric="EC50% to KD005" result="1.5 ratio to KD005"
binder="KD052 (antibody, V domains shown, KD005 humanized variant) VH: EVQLVESGGGLIQPGGSLRLSCAASGFTFSGSDMSWVRQAPGKGLEWVSVITSGGTTYYADTVKGRFTISRDNSKNTLYLQMNSLRAEDTAVYYCAKSRLTDSHYVEDAWGQGTLVTVSS" metric="EC50% to KD005" result="0.875 ratio to KD005"
binder="KD005 (antibody, human IgG1, V domains shown, also called anti-TROP2 sdAb KD005) VH: QVQLQESGGGLVEAGGSLRLSCAASGFTFSGSDMSWVRQAPGKGPEWVSYITSGGTTYYPDSVKGRFTISRDNAKNTLYLQMNSLKPDDTALYRCAKSRLTDSHYVEDAWGQGTQVTVSS" metric="EC50% to KD005" result="1 ratio to KD005"
